target: HIV-1 Env of ZM53.12 (HIV-1); experiment: cell-based or functional assay
Readout Kind: neutralization IC50 (mg/L)

Binder	Units Symbol	Value Reported
CAP256-VRC26.12 (antibody, V domains shown) VH: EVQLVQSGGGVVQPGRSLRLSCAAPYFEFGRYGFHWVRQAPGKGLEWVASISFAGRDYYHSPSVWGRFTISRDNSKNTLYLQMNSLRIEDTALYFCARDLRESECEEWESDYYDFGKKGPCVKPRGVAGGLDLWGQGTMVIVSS VL: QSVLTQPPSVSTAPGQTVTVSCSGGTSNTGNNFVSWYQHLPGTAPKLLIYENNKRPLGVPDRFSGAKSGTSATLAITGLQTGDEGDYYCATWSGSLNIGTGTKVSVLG	mg/L	0.211
CAP256-VRC26.03 (antibody, V domains shown) VH: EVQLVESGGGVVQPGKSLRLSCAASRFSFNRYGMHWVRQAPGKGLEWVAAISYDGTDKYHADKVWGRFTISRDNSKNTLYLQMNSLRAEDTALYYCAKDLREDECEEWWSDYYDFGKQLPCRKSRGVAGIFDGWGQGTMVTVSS VL: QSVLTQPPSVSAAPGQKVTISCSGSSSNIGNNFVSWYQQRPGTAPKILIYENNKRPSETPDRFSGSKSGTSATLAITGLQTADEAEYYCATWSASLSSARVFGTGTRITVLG	mg/L	0.008
CAP256-VRC26.10 (antibody, V domains shown) VH: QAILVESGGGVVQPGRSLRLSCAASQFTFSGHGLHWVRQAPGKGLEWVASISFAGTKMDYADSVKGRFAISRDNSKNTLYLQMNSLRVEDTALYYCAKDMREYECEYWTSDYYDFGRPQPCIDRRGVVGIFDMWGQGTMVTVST VL: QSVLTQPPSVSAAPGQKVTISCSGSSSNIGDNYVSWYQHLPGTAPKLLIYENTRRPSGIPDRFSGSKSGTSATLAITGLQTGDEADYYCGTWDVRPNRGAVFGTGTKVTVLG	mg/L	0.072
